assay: CCTE_Shafer_MEA_acute_per_burst_spike_number_mean: CCTE's Neural Acute Assay for Average Number of Spikes Per Burst, Shafer Lab (AID 2284015);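 also: hits are decreases in mean spikes per burst versus baseline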
The source made the active and inactive calls. The calls were made as follows: active = hit-call score of the fitted dose curve at least 0.9, where 1 is the maximum; inactive = score below 0.9.
Endpoint Name: outcome

Look up outcome for this compound: [Cd+2].[Cl-].[Cl-]
inactive

Look up outcome for this compound: CP(=O)(O)CC[C@H](N)C(=O)O
inactive

Look up outcome for this compound: c1cc[n+]2c(c1)-c1cccc[n+]1CC2
inactive

* * *

read-out: Tissue Factor, F3 (gene 2152); assay: BSK_CASM3C_TissueFactor: BioMAP Diversity Plus: CASM3C Assay for Tissue Factor Biomarker Activity (AID 2283052); conditions: primary human coronary artery smooth muscle cells; actives raise or lower the signal;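 also: cell surface tissue factor protein level read by ELISA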
Active and inactive are the calls of the source. The calls were made as follows: active = hit-call score of the fitted dose curve at least 0.9, where 1 is the maximum; inactive = score below 0.9.
Endpoint Name: AC50

Solved cases below.
Look up AC50 for this compound: Cc1ccc(OP(=O)(Oc2ccc(C)cc2)Oc2ccc(C)cc2)cc1 (tested in a mixture with another compound)
inactive

Look up AC50 for this compound: CCC(C)c1cc([N+](=O)[O-])cc([N+](=O)[O-])c1OC(=O)C=C(C)C (centres undefined)
7.73 µM (active)

Look up AC50 for this compound: CCc1cc(C)cc(CC)c1-c1c(OC(=O)C(C)(C)C)n2n(c1=O)CCOCC2
8.26 µM (active)

Look up AC50 for this compound: CC(=O)/C=C/c1ccccc1
inactive

Look up AC50 for this compound: O=[N+]([O-])c1ccc(Cl)cc1
inactive

Next:
Look up AC50 for this compound: CCCOC(=O)c1ccccc1C(=O)OCCC
inactive

Look up AC50 for this compound: O=[N+]([O-])O
inactive

Look up AC50 for this compound: O=C1C=CC(=O)C=C1
inactive

Look up AC50 for this compound: CC(C)COP(=O)(OCC(C)C)OCC(C)C
inactive

Look up AC50 for this compound: CC(C)(C)C(O)C(Oc1ccc(-c2ccccc2)cc1)n1cncn1 (centres undefined)
14.4 µM (active)

Look up AC50 for this compound: CC(C)CCCCCCCOC(=O)c1ccccc1C(=O)OCCCCCCCC(C)C
inactive

Look up AC50 for this compound: O=C1C(Cl)=C(Cl)C(=O)C(Cl)=C1Cl
6.19 µM (active)

Look up AC50 for this compound: CCCCCCCCCCCC#N
inactive

Look up AC50 for this compound: c1ccc(Nc2ccc3ccccc3c2)cc1
inactive

* * *

read-out: Interleukin-8 (IL8), CXCL8 (gene 3576); assay: BSK_SAg_IL8: BioMAP Diversity Plus: SAg Assay for Interleukin-8 (IL8) Biomarker Activity (AID 2283094); settings: primary human HUVEC with PBMC; actives raise or lower the signal
Calls of active or inactive are those of the source. How the source made its calls: active means hit-call score of the fitted dose curve at least 0.9, where 1 is the maximum; inactive means score below 0.9.
Log the outcome using a class from active, inactive

What did this assay record as the result for CNC(=O)Oc1cc(C)c(SC)c(C)c1 ?
inactive

What did this assay record as the result for Nc1ccc(-c2ccc(N)c(N)c2)cc1N ?
inactive

What did this assay record as the result for C=CC(=O)OCC(CC)CCCC (centres undefined) ?
inactive

What did this assay record as the result for CC(C)CCCCCCCOC(=O)c1ccccc1C(=O)OCCCCCCCC(C)C ?
inactive

What did this assay record as the result for CC(C)(c1cc(Cl)c(O)c(Cl)c1)c1cc(Cl)c(O)c(Cl)c1 ?
active

Next:
What did this assay record as the result for O=[N+]([O-])O ?
inactive

What did this assay record as the result for N#CCCCCC#N ?
inactive

What did this assay record as the result for O=C(CCl)c1ccccc1 ?
active

What did this assay record as the result for CC(=O)/C=C/c1ccccc1 ?
inactive

What did this assay record as the result for CCc1cc(C)cc(CC)c1-c1c(OC(=O)C(C)(C)C)n2n(c1=O)CCOCC2 ?
inactive
